All values here come from patent US8431563B2.

Target: interaction between glucokinase (GK) and glucokinase regulatory protein (GKRP) (Homo sapiens, UniProt Q14397)
Sequence (Q14397 1-625): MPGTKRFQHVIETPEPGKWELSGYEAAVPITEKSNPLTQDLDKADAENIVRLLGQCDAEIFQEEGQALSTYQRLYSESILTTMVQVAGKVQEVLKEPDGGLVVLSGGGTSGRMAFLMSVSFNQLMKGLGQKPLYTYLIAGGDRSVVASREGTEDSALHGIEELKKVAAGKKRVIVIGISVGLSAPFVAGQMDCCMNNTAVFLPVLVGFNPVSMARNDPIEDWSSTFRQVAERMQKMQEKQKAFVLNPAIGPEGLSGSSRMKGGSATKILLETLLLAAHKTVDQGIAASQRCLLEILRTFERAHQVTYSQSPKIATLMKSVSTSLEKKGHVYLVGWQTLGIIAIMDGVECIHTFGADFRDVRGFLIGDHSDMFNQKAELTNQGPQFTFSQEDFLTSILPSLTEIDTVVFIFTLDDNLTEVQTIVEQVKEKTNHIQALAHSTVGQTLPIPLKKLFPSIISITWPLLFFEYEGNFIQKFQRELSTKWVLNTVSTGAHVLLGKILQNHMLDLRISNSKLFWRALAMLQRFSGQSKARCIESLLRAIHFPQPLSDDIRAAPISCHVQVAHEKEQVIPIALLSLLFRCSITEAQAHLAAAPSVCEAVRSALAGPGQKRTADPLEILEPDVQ
Experiment: biochemical
Assay type: binding
Details: avi-tagged GKRP, GK-fluorescein, AlphaScreen beads; read-out: GK-GKRP IC50 (Binding)
Labelling field: enter class 1 if recorded IC50 is less than 30 nM. Enter class 0 if it equals or exceeds that cut-off.

{"columns": ["compound", "class label"],
 "data": [
  ["CCC(O)C#Cc1cc(C(O)(C(F)(F)F)C(F)(F)F)ccc1N1CCC(S(=O)(=O)c2ccccc2)CC1 (racemic)", "class 0"],
  ["C[C@H]1COCCN1C[C@H]1CN(S(=O)(=O)c2cccs2)CCN1c1ccc(C(O)(CO)C(F)(F)F)cc1 (single isomer, unassigned) [Example 83 Peak #1]", "class 0"],
  ["CC(C)C1C(=O)NCCN1C[C@H]1CN(S(=O)(=O)c2cccs2)CCN1c1ncc(C(O)(C(F)(F)F)C(F)(F)F)cn1 (mixture of isomers)", "class 1"],
  ["CC(C)N(C[C@H]1CN(S(=O)(=O)c2ccc(N)nc2)CCN1c1ncc(C(O)(C(F)(F)F)C(F)(F)F)cn1)S(C)(=O)=O", "class 0"],
  ["CC(O)(c1ccc(N2CCN(S(=O)(=O)c3cccs3)C[C@@H]2CN(C2CCC2)S(=O)(=O)c2cccnc2)cc1)C(F)(F)F (mixture of isomers)", "class 0"],
  ["CC(O)(c1ccc(N2CCN(S(=O)(=O)c3cccs3)C[C@@H]2CN2C3COCC2C(O)C3)cc1)C(F)(F)F (stereo partly shown) [Example 77]", "class 1"],
  ["CC(O)(c1cnc(N2CCN(S(=O)(=O)c3ccc(N)nc3)C[C@@H]2CC2CCOCC2)nc1)C(F)(F)F (mixture of isomers)", "class 0"]
]}

----------
Quick reference for pEC50 among some compounds
Molecular target: GKRP (Glucokinase Regulatory Protein) with human His-hepatic GK (Homo sapiens, UniProt Q14397)
Sequence (Q14397 1-625): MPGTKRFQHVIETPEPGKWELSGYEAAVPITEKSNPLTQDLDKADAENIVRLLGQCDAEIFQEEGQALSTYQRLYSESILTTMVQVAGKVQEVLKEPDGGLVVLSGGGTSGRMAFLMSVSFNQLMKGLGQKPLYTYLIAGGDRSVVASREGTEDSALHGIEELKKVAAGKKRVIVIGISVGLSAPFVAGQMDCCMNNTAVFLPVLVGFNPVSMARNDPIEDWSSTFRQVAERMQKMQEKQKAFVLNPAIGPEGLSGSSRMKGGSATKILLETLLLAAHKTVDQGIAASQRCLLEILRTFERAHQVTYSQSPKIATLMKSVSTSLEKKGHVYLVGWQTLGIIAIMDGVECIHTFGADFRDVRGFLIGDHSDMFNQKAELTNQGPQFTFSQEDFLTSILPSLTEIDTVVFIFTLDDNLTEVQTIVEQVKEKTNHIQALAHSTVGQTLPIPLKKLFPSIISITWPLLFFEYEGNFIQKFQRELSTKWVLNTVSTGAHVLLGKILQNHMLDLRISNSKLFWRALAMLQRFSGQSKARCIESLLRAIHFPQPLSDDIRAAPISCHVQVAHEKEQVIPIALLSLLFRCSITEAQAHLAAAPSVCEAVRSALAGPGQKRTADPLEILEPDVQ
Assay: GKRP LC MS/MS Biochemical Assay
Conditions: GK-GKRP EC50 (LC MS/MS), 13C-glucose-6-phosphate formation; 1 μM GKRP (10×), 30 nM GK (5×)
pEC50: −log10 of the molar value. Structures can show the parent of a compound that is named as a salt.

{"columns": ["compound", "pEC50"],
 "data": [
  ["O=S(=O)(c1ccsc1)N1CCN(c2ccc(C(O)(C(F)(F)F)C(F)(F)F)cc2)CC1", 6.02],
  ["CC(O)(c1ccc(N2CCN(S(=O)(=O)c3cccs3)CC2CN2C[C@H]3C[C@@H]2CO3)cc1)C(F)(F)F (stereo partly drawn)", 6.06],
  ["CC[C@H]1CN(S(=O)(=O)c2cccs2)CCN1c1ccc(C(O)(C(F)(F)F)C(F)(F)F)cc1", 5.86],
  ["CC1CN(CC2CN(S(=O)(=O)c3cccs3)CCN2c2ccc(C(C)(O)C(F)(F)F)cc2)CCO1 (mixture of isomers)", 6.15],
  ["CC(O)(c1ccc(N2CCN(S(=O)(=O)c3cccs3)CC2CN2CCC(F)(F)CC2)cc1)C(F)(F)F (mixture of isomers)", 5.82],
  ["CC(O)(c1ccc(N2CCN(S(=O)(=O)c3cccs3)CC2Cc2ccc(F)cc2)cc1)C(F)(F)F (mixture of isomers)", 5.90],
  ["O=S(=O)(c1cccs1)N1CCN(c2ccc(C(O)(C(F)(F)F)C(F)(F)F)cc2-c2cccc(F)c2)CC1", 5.74],
  ["CC(O)(c1ccc(N2CCN(S(=O)(=O)c3cccs3)CC2CN2CC3CCC(C2)O3)cc1)C(F)(F)F (racemic)", 6.75],
  ["O=S(=O)(c1ccccc1)c1ccc(-c2ccc(C(O)(C(F)(F)F)C(F)(F)F)cc2)cc1", 5.40],
  ["CC(O)(c1ccc(N2CCN(S(=O)(=O)c3cccs3)CC2CN2CCOCC2CO)cc1)C(F)(F)F (mixture of isomers)", 6.22],
  ["C[C@H]1CN(S(=O)(=O)c2ccccc2)CCN1c1ccc(C(O)(C(F)(F)F)C(F)(F)F)cc1", 6.05],
  ["CC(O)(c1ccc(N2CCN(S(=O)(=O)c3cccs3)CC2Cc2ccncc2)cc1)C(F)(F)F (mixture of isomers) [Example 76, trifluoroacetate]", 6.28]
]}

----------
Target: GKRP (Glucokinase Regulatory Protein) with human His-hepatic GK (Homo sapiens)
Sequence (Q14397 1-625): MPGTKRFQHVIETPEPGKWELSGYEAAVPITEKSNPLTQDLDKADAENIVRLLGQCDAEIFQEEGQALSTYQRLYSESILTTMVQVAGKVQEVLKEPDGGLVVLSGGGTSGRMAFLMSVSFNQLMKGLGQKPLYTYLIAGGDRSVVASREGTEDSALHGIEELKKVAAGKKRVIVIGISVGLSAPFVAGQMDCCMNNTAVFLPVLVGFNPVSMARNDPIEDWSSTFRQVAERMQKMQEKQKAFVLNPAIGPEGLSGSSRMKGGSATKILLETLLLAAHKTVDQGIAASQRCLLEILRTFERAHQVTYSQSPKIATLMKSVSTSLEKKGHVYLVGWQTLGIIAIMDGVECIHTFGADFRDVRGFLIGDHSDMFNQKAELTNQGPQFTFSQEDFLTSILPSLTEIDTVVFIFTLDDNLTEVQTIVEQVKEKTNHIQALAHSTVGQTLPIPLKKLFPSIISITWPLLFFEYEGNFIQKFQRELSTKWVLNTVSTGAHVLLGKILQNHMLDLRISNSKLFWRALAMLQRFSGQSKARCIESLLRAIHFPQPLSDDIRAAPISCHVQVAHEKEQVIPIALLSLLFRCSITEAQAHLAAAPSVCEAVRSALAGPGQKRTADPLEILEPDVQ
Assay: biochemical
Conditions: 13C-glucose-6-phosphate formation; 280 nM GKRP (10×), 30 nM GK (5×); read-out: GK-GKRP EC50 (LC MS/MS-2)
Procedure: GKRP LC MS/MS-2 Biochemical Assay This assay is used to directly measure the formation of ^13C-glucose-6-phosphate from ^13C-glucose by LC MS/MS. Begin by preparing the following solutions: Compound Buffer (CB): 50 mM Tris, pH 7.5/4 mM MgCl2/6% DMSO/fresh 10 mM DTT from 1M frozen stock. Enzyme Buffer (EB): 50 mM Tris, pH 7.5/4 mM MgCl2/6% DMSO/fresh 0.1% BSA/fresh 0.01% Brij-35 (10% BSA and 1% Brij-35 stock). GK (Glucokinase) Working Stock (5×): Dilute human His-hepatic GK to 30 nM in EB buffer. […]
pEC50: −log10 of the molar value.

{"columns": ["compound", "pEC50"],
 "data": [
  ["C[C@H]1COCCN1C[C@H]1CN(S(=O)(=O)c2cccs2)CCN1c1ccc(C(O)(CO)C(F)(F)F)cc1 (single isomer, unassigned) [Example 83 Peak #1]", 7.17],
  ["CC(O)(c1ccc(N2CCN(S(=O)(=O)c3cccs3)C[C@@H]2COCc2ccco2)cc1)C(F)(F)F (mixture of isomers)", 6.99],
  ["COC1C[C@H]2COC[C@@H](C1)N2C[C@H]1CN(S(=O)(=O)c2cccs2)CCN1c1ccc(C(C)(O)C(F)(F)F)cc1 (stereo partly shown)", 7.09],
  ["CC(C)N(C[C@H]1CN(S(=O)(=O)c2ccc(N)nc2)CCN1c1ncc(C(O)(C(F)(F)F)C(F)(F)F)cn1)S(C)(=O)=O", 7.20]
]}
